Provide the reported pKd of each item.
target: recombinant human insulin (Humulin) (Homo sapiens); test: UV spectroscopy binding of sex hormones to recombinant human insulin (Humulin)
Sequence (P01308 with tags, fused parts or gaps): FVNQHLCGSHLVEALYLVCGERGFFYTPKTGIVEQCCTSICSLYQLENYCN
Sequence (P01308 with tags, fused parts or gaps): as above
pKd: −log10 of the molar value. Structures can show the parent of a compound that is named as a salt.

Would you mind giving pKd for every molecule in the list below?
1. C[C@]12CC[C@@H]3c4ccc(O)cc4CC[C@H]3[C@@H]1C[C@@H](O)[C@@H]2O
2. CC/C(=C(\c1ccccc1)c1ccc(OCCN(C)C)cc1)c1ccccc1 [Tamoxifen, Tamoxifen citrate salt]
3. CC(=O)[C@H]1CC[C@H]2[C@@H]3CCC4=CC(=O)CC[C@]4(C)[C@H]3CC[C@]12C
4. O=c1c(-c2ccc(O)cc2)coc2cc(O)cc(O)c12
5. C[C@]12CCC(=O)C=C1CC[C@@H]1[C@@H]2CC[C@]2(C)C(=O)CC[C@@H]12

**Result**
1: < 3.30; 2: < 3.30; 3: < 3.30; 4: < 3.30; 5: 4.87
